# Test system: XF498
# Experiment summary: NCI tumour cell line growth inhibition, 48 h
The source made the active and inactive calls. Cut-off read from the data, not from the text of the source: active = GI50 up to about 1.1 µM and inactive = higher.
Outcome codes: class 1 (active), class 0 (inactive)

Compound	Category label
FC(F)(F)C12C34C=CC5(CCC6(C=CC1(CC3)O6)C52C(F)(F)F)O4 (centres undefined)	class 0
O=C1N[C@@H]2C(=C[C@H](O)[C@@H](O)[C@H]2O)c2cc3c(c(O)c21)OCO3 [NARCICLASINE]	class 1
C#CCOCn1cnc2c(Sc3c([N+](=O)[O-])ncn3C)ncnc21	class 0
Cc1cc(O)c(C(=O)O)c2c1C(=O)c1c(O)c(OCC(O)C(O)C(O)C(O)CO)c(O)c(O)c1C2=O.NCCNCCO (centres undefined)	class 0

====

# Tested on: MCF7
# Experiment summary: NCI tumour cell line growth inhibition, 48 h
The source made the active and inactive calls. No stated cut-off is given here; in the data, active = GI50 up to about 1.1 µM and inactive = higher.
Outcome codes: y for active, n for inactive

Compound	Category label
CC1(C)CCCC(C)(C2CCC3(C)C2C(O)CC2C4(C)CCC(O)C(C)(C)C4CCC23C)O1 (stereo not drawn)	n
CCCCN(C)C(=O)C1=C(C)NC(C)=C(C(=O)N(C)CCCC)C1	n
[O-][n+]1cn[n+]([O-])c2ccccc21	n
c1ccc2cc(NCNc3ccc4ccccc4c3)ccc2c1	n
CCc1nc(N)nc(N)c1-c1ccc(N(C)Cc2ccccc2)c([N+](=O)[O-])c1	y
O=c1onc2n1-c1ccc(Cl)cc1C(=S)N1CSCC21 (stereo not drawn)	n
NC(=O)c1ncn(C2C=CC(CP(=O)(O)O)C2)c1N (stereo not drawn)	n
Cc1ccc(-c2c(C#N)c(-c3ccc([N+](=O)[O-])cc3)c(C#N)c(=O)n2NS(=O)(=O)c2ccc(C)cc2)cc1	n

====

# System: UACC-62
# Experiment summary: NCI tumour cell line growth inhibition, 48 h
Active and inactive are the calls of the source. Cut-off read from the data, not from the text of the source: active = GI50 up to about 1.1 µM and inactive = higher.
Listed compounds paired with reported GI50

Compound	GI50
COc1ccccc1/C=C1\Sc2scc(-c3ccc(O)c(O)c3)[n+]2C1=O	16.7 µM (inactive)
Cc1ccc(-c2c(C#N)c(-c3ccc([N+](=O)[O-])cc3)c(C#N)c(=O)n2NS(=O)(=O)c2ccc(C)cc2)cc1	31 µM (inactive)
COc1ccc(C(=O)NCCC2CN(S(=O)(=O)C(F)(F)F)c3ccccc32)c(OC)c1 (stereo unspecified)	26.9 µM (inactive)
CC1=NN(C(=O)CC(=O)Nc2ccc(C)cc2)C(=O)C1/N=N/c1ccc(C(=O)O)cc1 (stereo unspecified)	> 100 µM (inactive)
CC(=O)Nc1ccc(S(=O)(=O)c2nnc(NC(C)=O)s2)cc1	> 100 µM (inactive)
C[C@H]1O[C@@H](c2c(O)ccc3ccccc23)C[C@@H](N(C)C)C1O (stereo partly specified)	81.3 µM (inactive)
COC(C(=O)C(O)C(C)O)C1CC2C=C3C=C(OC4CC(OC5CC(O)C(OC)C(C)O5)C(OC(C)=O)C(C)O4)C(C)C(O)=C3C(O)=C2C(=O)C1OC1CC(OC2CC(OC3CC(C)(O)C(OC(=O)C(C)C)C(C)O3)C(O)C(C)O2)C(O)C(C)O1 (stereo unspecified)	< 0.01 µM (active)
COC(=O)[C@](NC(=O)OCc1ccccc1)([C@@H](C)[S+]([O-])c1ccc(C)cc1)C(F)(F)F (stereo partly specified)	37.3 µM (inactive)
CCCOC1OC(CS(=O)(=O)O)C(OC(C)=O)C(OC(C)=O)C1OC(C)=O (stereo unspecified)	> 100 µM (inactive)
Cc1nc(-c2cc3cc([N+](=O)[O-])ccc3oc2=O)cs1	> 100 µM (inactive)
N/N=c1\[nH]c2ccccc2o1	> 100 µM (inactive)

====

# System: OVCAR-5
# Experiment summary: NCI tumour cell line growth inhibition, 48 h
The source made the active and inactive calls. Rule as the data show it: active = GI50 up to about 1.1 µM and inactive = higher.

Compound	GI50
Nc1nc(-c2ccccc2)c(Cl)c(-c2cc(Cl)ccc2O)n1	> 60 µM (inactive)
NC(Cc1ccccc1)C(=O)N[C@H]1c2ccsc2/C(=N/O)[C@H]1O (stereo not given in full)	> 100 µM (inactive)
O=C1C(Cl)C(c2cc(Br)ccc2O)N1n1cnc2ccccc2c1=O (stereo not given)	28.5 µM (inactive)
CCCCCCCCCCCCCCCCSS(C)(=O)=O	> 91 µM (inactive)
N=c1nc(N)nc(N)n1-c1ccc(S(N)(=O)=O)cc1	> 100 µM (inactive)

====

# Test system: SW-620
# Experiment summary: NCI tumour cell line growth inhibition, 48 h
The source made the active and inactive calls. No stated cut-off is given here; in the data, active = GI50 up to about 1.1 µM and inactive = higher.
Outcome codes: active, inactive

Compound	System tested	Category label
COC(=O)C1CCCN1C(=O)C(Cc1cn(S(=O)(=O)c2ccc(C)cc2)cn1)NC(=O)OC(C)(C)C (stereo not drawn)	SW-620	inactive
Cc1c2ccccc2c(CSC(=N)N)c2ccccc12	SW-620	active
Cc1ccc(S(=O)(=O)NC(C)C(=O)O)cc1 (stereo not drawn)	SW-620	inactive
N#CCCN(CCC#N)c1ccc(C(=N/c2ccc(F)cc2)/N=N/c2ccc(Cl)cc2)cc1	SW-620	inactive
C=CCSC1=N/C(=C\c2ccc(OC)cc2)C(=O)N1CC=C	SW-620	inactive
CC(=O)OC1C2CCC1C1C2N=NN1c1ccc([N+](=O)[O-])cc1 (stereo not drawn)	SW-620	inactive
CCc1cccc(CC)c1NC(=O)C1=CNC(C)=C(C(=O)Nc2c(CC)cccc2CC)C1c1ccc(O)c(OC)c1 (stereo not drawn)	SW-620	inactive
Cc1ccc(S(=O)(=O)c2scc(-c3ccccc3)c2C)cc1	SW-620	inactive
CC(C)N(Cc1ccccc1)S(=O)(=O)c1nc(C(C)(C)C)n[nH]1	SW-620	inactive
S=c1sscc1N1CCSc2ssc(=S)c21	SW-620	inactive
COc1cc(OC)cc(Oc2nc3ccccc3nc2C(F)(F)F)c1	SW-620	inactive
CCCOC1OC(CS(=O)(=O)O)C(OC(C)=O)C(OC(C)=O)C1OC(C)=O (stereo not drawn)	SW-620	inactive
N#CC1(C2SCC[S+]2[O-])C2=C(C(=O)c3ccccc3C2=O)N2CCCC21 (stereo not drawn)	SW-620	inactive
Nc1nc(-c2cccc([N+](=O)[O-])c2)cc(-c2cc(-c3cccc([N+](=O)[O-])c3)nc(N)n2)n1	SW-620	inactive
COC(=O)C1CC(C=[N+](C)C)=C(SC)N1 (stereo not drawn)	SW-620	inactive
Nc1nc(O)c2c(ncn2CCO)n1	SW-620	inactive
Cc1ccccc1C(=O)NC(O)(C(F)(F)F)C(F)(F)F	SW-620	inactive
COc1ccc(Cc2nc3cc([N+](=O)[O-])ccc3n2C[C@@H]2CCCN3CCCCC23)cc1 (stereo partly drawn)	SW-620	inactive
CN(/N=C/c1cccs1)c1ccc(Cl)cc1[N+](=O)[O-]	SW-620	inactive
COC(=O)C1=C(C)NC(C)=C(C(=O)OC)C1c1ccc(/[N+]([O-])=C/c2ccccc2)cc1	SW-620	inactive
COc1cccc(OC)c1C(=O)OCc1ccccc1	SW-620	inactive
CCCCCCCCCCCCCCCC(=O)OC1C(O)C(CO)OC(OC)C1NC(=O)N(CCCl)N=O (stereo not drawn)	SW-620	inactive
COC(=O)/C=C(\S/C=C(/c1ccccc1)N1CCn2c(C(=O)c3ccccc3)c(C(=O)OC)c(C(=O)OC)c21)C(=O)OC	SW-620	active

====

# System: COLO 205
# Experiment summary: NCI tumour cell line growth inhibition, 48 h
Active and inactive are the calls of the source. Cut-off read from the data, not from the text of the source: active = GI50 up to about 1.1 µM and inactive = higher.
Outcome codes: 1 (yes) = active, 0 (no) = inactive

Molecule	Category label
O=c1onc2n1-c1ccc(Cl)cc1C(=S)N1CSCC21 (stereo not given)	0 (no)
O=C1CCCCCCCCCCC1CN(Cc1ccccc1)Cc1ccccc1 (stereo not given)	0 (no)
Cc1ccc2c(=O)c3ccccc3sc2c1	0 (no)
CC(=O)N1C(NN(C)C)CCN1c1ccccc1 (stereo not given)	0 (no)
CCN(CC)CCSc1c(C(C)=O)c(=O)n(-c2ccccc2)c(=S)n1-c1ccccc1	0 (no)
Cn1c2c(c3ccccc31)CCN1OCC=C[C@@H](C(=O)O)[C@@H]21	0 (no)
CCc1nc(N)nc(N)c1-c1ccc(N(C)Cc2ccccc2)c([N+](=O)[O-])c1	1 (yes)
Nc1nc(-c2ccccc2)nc2oc(-c3cccs3)nc12	0 (no)
Oc1ccc(/C=N/c2nccs2)c(O)c1	0 (no)
FC(F)(F)C12C34C=CC5(CCC6(C=CC1(CC3)O6)C52C(F)(F)F)O4 (stereo not given)	0 (no)
CC1=NN(C(=O)CC(=O)Nc2ccc(C)cc2)C(=O)C1/N=N/c1ccc(C(=O)O)cc1 (stereo not given)	0 (no)
Clc1ccc(-c2nnc(-c3cccc4ccccc34)o2)cc1Cl	0 (no)
O=c1[nH]c(=O)n(C2OC(CO)C(O)C2O)cc1OCCCc1ccccc1 (stereo not given)	0 (no)
O=C(O)C/C(=C\c1ccco1)C(=O)O	0 (no)
O=[PH](O)c1cccs1	0 (no)
CCN(CC)C1Oc2cc3c(cc2C(c2cc(OC)c(OC)c(OC)c2)C1C)OCO3 (stereo not given)	1 (yes)
COc1ccc(-c2nc(Sc3c([N+](=O)[O-])ncn3C)n[nH]2)cc1	0 (no)
CC(C)N(Cc1ccccc1)S(=O)(=O)c1nc(C(C)(C)C)n[nH]1	0 (no)
CCOC(=O)NC(=O)c1cn(CCN(CCO)C(=O)NCCCCCCNC(=O)N(CCO)CCn2cc(C(=O)NC(=O)OCC)c(=O)[nH]c2=O)c(=O)[nH]c1=O	0 (no)
Cc1ccc2c(=O)c(-c3nnsn3)c[nH]c2n1	0 (no)
O=c1[nH]cc(/N=C/c2cc(Cl)ccc2O)c(=O)[nH]1	0 (no)
S=c1sc2c(s1)SCCCCSCCCCSc1sc(=S)sc1SCCCCSCCCCS2	0 (no)
Cc1ccccc1C(=O)NC(O)(C(F)(F)F)C(F)(F)F	0 (no)
Cc1cc(C(C)(C)C)cc(CNC2CCCCC2)c1O	0 (no)
COc1ccc2nc3c(C(=O)NCCN(C)C)cccc3nc2c1	0 (no)
COc1cc(Oc2nc3cc(F)c(F)cc3nc2-c2ccccc2)cc(OC)c1OC	0 (no)
CCCCCCCCOc1ccc(/C=C/C2=[N+](CCO)CCO2)cc1	0 (no)
CCc1n[nH]c(=O)n1CCO	0 (no)
O=C1C=CC(S(=O)(=O)C2=C/C(=C/Nc3ccc(Cl)cc3)C(=O)C=C2)=C/C1=C/Nc1ccc(Cl)cc1	0 (no)
Cc1ccc(NCCCN2CCN(CCCNc3ccc(C)c4sc5ccccc5c(=O)c34)CC2)c2c(=O)c3ccccc3sc12	0 (no)
